- System: HOP-62 NSCLC
- Measurement protocol: NCI tumour cell line growth inhibition, 48 h

{"Compound": "Cc1cc(S(=O)(=O)Nc2nc(N)nc(N(C)C)n2)c(S)cc1Cl", "Target system": "HOP-62 NSCLC", "TGI": "> 10 µM"}
{"Compound": "O=C1C=Cc2cscc21", "Target system": "HOP-62 NSCLC", "TGI": "> 100 µM"}
{"Compound": "NC(CSC(=O)c1ccccc1)C(=O)O (configuration not stated)", "Target system": "HOP-62 NSCLC", "TGI": "> 100 µM"}
{"Compound": "C[C@H](CCC(=O)NN)[C@H]1CC[C@H]2[C@@H]3CC[C@@H]4C[C@H](O)CC[C@]4(C)[C@H]3CC[C@]12C", "Target system": "HOP-62 NSCLC", "TGI": "> 100 µM"}
{"Compound": "O=C1C=CC(=O)c2c1c1c(c3c2C2c4ccccc4C3c3ccccc32)C2c3ccccc3C1c1ccccc12", "Target system": "HOP-62 NSCLC", "TGI": "35.1 µM"}
{"Compound": "COC(O)C12OC3CO[Si](C(C)C)(C(C)C)O[Si](C(C)C)(C(C)C)OC3C1Oc1nc(=O)ccn12 (configuration not stated)", "Target system": "HOP-62 NSCLC", "TGI": "26.9 µM"}
{"Compound": "COc1ccccc1N1C(=O)C2C3c4ccccc4C(OC(C)=O)(c4ccccc43)C2C1=O (configuration not stated)", "Target system": "HOP-62 NSCLC", "TGI": "> 100 µM"}
{"Compound": "COc1cc(C(=O)/C=C/c2c(-c3cccs3)nc3sc(C)cn23)cc(OC)c1OC", "Target system": "HOP-62 NSCLC", "TGI": "64.5 µM"}
{"Compound": "O=C(Nc1ccn(C2CC(O)C(CO)O2)c(=O)n1)c1ccccc1 (configuration not stated)", "Target system": "HOP-62 NSCLC", "TGI": "> 100 µM"}
{"Compound": "Cc1ccc(S(=O)(=O)O/N=C2\\CCC\\C2=C/c2ccccc2)cc1", "Target system": "HOP-62 NSCLC", "TGI": "> 100 µM"}
{"Compound": "Cc1ccc2nc(C=Nc3ccccc3Cl)cc(C)c2c1", "Target system": "HOP-62 NSCLC", "TGI": "> 100 µM"}
{"Compound": "COc1ccc(Nc2nc3cc(C(F)(F)F)ccc3nc2C(=O)O)cc1OC", "Target system": "HOP-62 NSCLC", "TGI": "> 100 µM"}

====

Below, each of the compounds is paired with its reported TGI value.
- System: CCRF-CEM leukemia
- Measurement protocol: NCI tumour cell line growth inhibition, 48 h

{"Compound": "CCN(CC)c1ccc(N=O)cc1", "TGI": "13 µM"}
{"Compound": "COc1cc(Nc2cc(C)nc(N3CCN(c4ccnc5cc(Cl)ccc45)CC3)n2)cc(OC)c1", "TGI": "> 100 µM"}
{"Compound": "Cc1ccc(S(=O)(=O)NC(CCC(=O)NN)C(=O)NN)cc1 (stereo not given)", "TGI": "> 100 µM"}
{"Compound": "COc1cc2c(cc1O)N=C[C@@H]1C[C@@H](F)CN1C2=O", "TGI": "3.3 µM"}
{"Compound": "CC(NC(=O)C(C)C(=O)Nc1ccc(C(F)(F)F)cc1)C(N)=O (stereo not given)", "TGI": "> 100 µM"}
{"Compound": "O=c1c2sc3nc(NCCN4CCCCC4)ncc3c2ncn1-c1ccccc1", "TGI": "> 100 µM"}
{"Compound": "C=C(C)[C@@H]1CC[C@]2(COC(C)=O)CC[C@]3(C)[C@H](CC[C@@H]4[C@@]5(C)CC[C@H](OC(C)=O)C(C)(C)[C@@H]5CC[C@]43C)[C@@H]12", "TGI": "> 50 µM"}
{"Compound": "CON(C)C(=O)CCCO", "TGI": "> 100 µM"}
{"Compound": "CCN1CCN(c2cc(C)nc(N(CCCNc3ccnc4cc(Cl)ccc34)Cc3cccs3)n2)CC1", "TGI": "12.5 µM"}
{"Compound": "CC1(C)CC(=O)C(Cc2ccccc2)(Cc2ccccc2)C(=O)C1", "TGI": "> 100 µM"}
{"Compound": "CC(=O)OCC1OC(OC2=C(CC=C(C)C)C(=O)c3ccccc3C2=O)C(OC(C)=O)C(OC(C)=O)C1OC(C)=O (stereo not given)", "TGI": "> 100 µM"}
{"Compound": "CCN(CC)CCCNc1nc2ccccc2[n+]([O-])n1", "TGI": "> 100 µM"}
{"Compound": "COc1cc2c3c(n(CCCN=[N+]=[N-])c(=O)c2cc1OC)-c1ccc(C#N)cc1C3=O", "TGI": "> 100 µM"}
{"Compound": "CC(C)=CC(=O)OCC(=O)O[C@@H]1C[C@]2(C(C)C)O[C@@]1(C)[C@@H]1CC[C@@H](C)[C@H]1[C@@H]2OC(=O)/C=C/c1ccccc1", "TGI": "> 100 µM"}
{"Compound": "O=S(=O)(O)c1ccc(N=Nc2ccc(N=Nc3c(O)ccc4cc(S(=O)(=O)O)ccc34)cc2)cc1", "TGI": "> 100 µM"}
{"Compound": "CC12CCC(C(=O)n3c1nc1ccccc13)C(C)(C)O2 (stereo not given)", "TGI": "> 100 µM"}
{"Compound": "c1ccc(N=C2SC(c3ccccc3)(c3ccccc3)c3ccccc32)cc1", "TGI": "> 100 µM"}
{"Compound": "CN(C)c1ccc(-c2[nH]c(=O)c3ccccc3[n+]2C)cc1", "TGI": "> 100 µM"}
{"Compound": "CC1=C(SCCC(=O)OCC(=O)NCCC[Te]c2ccccc2)C(=O)c2ccccc2C1=O", "TGI": "19.6 µM"}
{"Compound": "O=C1NC(=NCCc2cccs2)S/C1=C\\c1ccc2ncccc2c1", "TGI": "> 25 µM"}
{"Compound": "Cc1ccc(S(=O)(=O)O/N=C2\\CCC\\C2=C/c2ccccc2)cc1", "TGI": "> 100 µM"}
{"Compound": "C=CCN(C(=O)OC(C)(C)C)C1=CC2C(C)=CN(S(=O)(=O)c3ccccc3)C2C(OCc2ccccc2)=C1 (stereo not given)", "TGI": "> 100 µM"}
{"Compound": "C=C(C)/C=C/C(O)[C@](C)(O)[C@H]1[C@H](O)C[C@@]2(C)[C@@H]3CCc4c(cc(OC5OC(CO)C(O)C(O)C5O)c(O)c4C)C3(C)C(=O)C[C@]12C (stereo not given in full)", "TGI": "> 100 µM"}
{"Compound": "COc1cc2c[n+]3ccc4cc(OC)c(OC)cc4c3cc2cc1O", "TGI": "> 100 µM"}
{"Compound": "COc1ccc2c(CCC(c3ccccc3)c3ccccc3)c3[n+](cc2c1OC)CCc1cc2c(cc1-3)OCO2", "TGI": "2.71 µM"}
{"Compound": "Cc1ccnc(NS(=O)(=O)c2ccc(NC3=CC(=O)C(=O)c4ccccc43)cc2)n1", "TGI": "> 100 µM"}
{"Compound": "CC(C)(Cl)C(Cl)CC/C(CBr)=C(\\Cl)CCl (stereo not given)", "TGI": "2.95 µM"}
{"Compound": "O=C1C=CC(=O)c2c(O)c(CO)c(CO)c(O)c21", "TGI": "0.195 µM"}
{"Compound": "CC[C@H]1C[C@@H](O)[C@@H]2[C@H](O)[C@H](O)CN2C1", "TGI": "> 100 µM"}
{"Compound": "O=c1c2ccccc2nc(/C=C(\\O)c2ccccc2)n1-c1ccccc1Cl", "TGI": "> 100 µM"}
{"Compound": "C=C1C(=O)OC2C1CC[C@H](C)C1(O)C(O)CC(=O)[C@@]21C (stereo not given in full)", "TGI": "> 10 µM"}
{"Compound": "O=C(CC(=O)Nc1ccccc1Cl)NNC(c1cc(N=Nc2ccc(Br)cc2)ccc1O)P(O)O (stereo not given)", "TGI": "9.58 µM"}
{"Compound": "CCOC1=CP(=O)(OCC)CC(C)=C1Cl (stereo not given)", "TGI": "> 100 µM"}
{"Compound": "CCOC(=O)[C@@H]1C2C(=C[C@H]3[C@H]1C(=O)N1CCCC[C@H]31)CCCN2C(=O)OCc1ccccc1 (stereo not given in full)", "TGI": "> 100 µM"}
{"Compound": "O=C1/C(=C/c2cccc(O)c2)COc2ccccc21", "TGI": "> 100 µM"}
{"Compound": "COc1ccccc1N=Nc1c(-c2ccccc2)nn(C(=O)CC(=O)Nc2ccccc2Cl)c1-c1ccccc1", "TGI": "> 100 µM"}
{"Compound": "COc1cc(/C=C2\\CC3C4CCC5=CC(=O)CC[C@]5(C)C4CC[C@]3(C)C2=O)ccc1OCCCn1ccnc1 (stereo not given in full)", "TGI": "10 µM"}
{"Compound": "Cc1cc(S(=O)(=O)Nc2nc(N)nc(N(C)C)n2)c(S)cc1Cl", "TGI": "> 10 µM"}
{"Compound": "O=C(O)c1ccccc1C1CCCc2c1[nH]c1ccccc21 (stereo not given)", "TGI": "76.2 µM"}
{"Compound": "C=C(Br)CN(C)CC(=C)Br", "TGI": "> 100 µM"}
